- test-system: T1, CEACAM1 (Sino Biological) (human, UniProt P13688 35-428, limits assumed)
- T1 construct: may be the same as CEACAM1-HIS; also called hCEACAM1; biotinylated soluble CEACAM1
- T1 sequence: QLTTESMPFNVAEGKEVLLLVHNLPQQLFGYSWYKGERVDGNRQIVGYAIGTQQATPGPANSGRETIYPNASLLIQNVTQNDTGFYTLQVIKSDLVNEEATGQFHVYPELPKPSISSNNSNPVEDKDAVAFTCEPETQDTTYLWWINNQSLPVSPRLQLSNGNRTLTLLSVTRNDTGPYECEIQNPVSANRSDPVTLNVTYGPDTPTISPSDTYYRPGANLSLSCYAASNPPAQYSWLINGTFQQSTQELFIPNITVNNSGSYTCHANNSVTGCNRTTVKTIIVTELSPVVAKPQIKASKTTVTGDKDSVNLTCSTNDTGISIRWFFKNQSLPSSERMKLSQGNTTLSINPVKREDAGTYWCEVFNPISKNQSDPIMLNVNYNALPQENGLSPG
- assay-protocol: SPR multi-cycle, IgG on Protein A
binders and their reported koff
// return numeric value only (unit: s⁻¹, not printed)

>  <binder>
He14/L1 (antibody, IgG4, V domains shown, IgG4 S241P, kappa; also called He14 / 1) VH: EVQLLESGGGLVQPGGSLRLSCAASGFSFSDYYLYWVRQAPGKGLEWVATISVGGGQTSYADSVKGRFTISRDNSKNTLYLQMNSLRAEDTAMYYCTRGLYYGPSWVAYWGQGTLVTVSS VL: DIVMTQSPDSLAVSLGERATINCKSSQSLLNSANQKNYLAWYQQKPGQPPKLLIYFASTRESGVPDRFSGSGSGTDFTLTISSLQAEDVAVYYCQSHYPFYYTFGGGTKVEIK

>  <koff / s⁻¹>
0.00724

$$$$
>  <binder>
Parent VH/L18 (antibody, IgG4, V domains shown, IgG4 S241P, kappa; also called VHp/L18; VH2 N56Q / 18) VH: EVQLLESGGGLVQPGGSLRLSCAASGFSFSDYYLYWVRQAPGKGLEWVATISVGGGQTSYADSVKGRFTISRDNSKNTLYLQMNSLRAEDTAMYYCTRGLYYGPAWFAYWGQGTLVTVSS VL: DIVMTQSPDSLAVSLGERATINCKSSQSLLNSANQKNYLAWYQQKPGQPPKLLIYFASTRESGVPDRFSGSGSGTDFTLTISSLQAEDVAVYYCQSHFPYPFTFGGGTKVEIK

>  <koff / s⁻¹>
0.00362

$$$$
>  <binder>
He4/L16 (antibody, IgG4, V domains shown, IgG4 S241P, kappa; also called He4 / 16) VH: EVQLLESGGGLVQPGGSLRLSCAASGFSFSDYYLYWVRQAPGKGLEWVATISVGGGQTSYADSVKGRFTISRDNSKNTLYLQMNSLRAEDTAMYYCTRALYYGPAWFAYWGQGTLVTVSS VL: DIVMTQSPDSLAVSLGERATINCKSSQSLLNSANQKNYLAWYQQKPGQPPKLLIYFASTRESGVPDRFSGSGSGTDFTLTISSLQAEDVAVYYCQSHYPYPFTFGGGTKVEIK

>  <koff / s⁻¹>
0.00146

$$$$

Moving on to the next binder.
Report koff for He9/L17 (antibody, IgG4, V domains shown, IgG4 S241P, kappa; also called He9 / 17) VH: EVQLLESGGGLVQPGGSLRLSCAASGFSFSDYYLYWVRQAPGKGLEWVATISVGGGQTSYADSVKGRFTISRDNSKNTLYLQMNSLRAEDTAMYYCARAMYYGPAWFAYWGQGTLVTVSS VL: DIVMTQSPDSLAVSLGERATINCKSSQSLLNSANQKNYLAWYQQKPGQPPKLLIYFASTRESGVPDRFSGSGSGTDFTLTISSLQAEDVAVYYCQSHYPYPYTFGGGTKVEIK 0.0015
